Entry source: paper PMC9352680

target-desc: T1, PUF4 RNA-binding domain (Saccharomyces cerevisiae, UniProt P25339 537-888)
T1 sequence: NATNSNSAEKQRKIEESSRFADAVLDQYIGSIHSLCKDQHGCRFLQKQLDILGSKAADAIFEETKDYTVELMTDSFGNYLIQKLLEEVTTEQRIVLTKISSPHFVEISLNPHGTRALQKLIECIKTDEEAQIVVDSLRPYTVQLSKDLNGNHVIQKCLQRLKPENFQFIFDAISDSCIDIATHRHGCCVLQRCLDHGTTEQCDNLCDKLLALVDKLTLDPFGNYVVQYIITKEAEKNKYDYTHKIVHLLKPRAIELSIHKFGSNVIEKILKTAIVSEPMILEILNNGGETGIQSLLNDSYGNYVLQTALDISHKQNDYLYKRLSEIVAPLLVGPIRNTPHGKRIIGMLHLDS
protocol-details: Mg; RNA-MaP; 20 mM Na-HEPES pH 7.4, 30 mM KOAc, 0.75 mM MgCl2, 0.1% Tween-20, 5% glycerol, 0.1 mg/mL BSA, 2 mM DTT; 25 C; 0.0125-409.6 nM protein
test-context: tags: N-His6-TEV cleaved; C-SNAP kept, Cy3B-labelled; label: tethered on chip by stalled RNA polymerase

>  <binder>
UCUCUUUGUAGCGUUAUCUCUU (ssRNA) [Ic_S1_P5E.1_K5.1_C5.1_H5.1_A5.1_[T5G]_[T6C]_[A7G]_F5.1_T5.1]

>  <value-unit>
nM

>  <Kd>
36.4

$$$$
>  <binder>
Ic_S4_P5E.1_K5.1_C5.1_H5.1_A5.1_[T5C]_[T6C]_F5.1_[T8A]_[T9C]_[A10C]_T5.1 (ssRNA) RNA: UUUGACAACUGAUCGUUCUUUCUUGUACCAACCUUCUUUCUCGAUCAGUUGUCUUU

>  <value-unit>
nM

>  <Kd>
424

$$$$
>  <binder>
ACAAACGCUAUAUAUAUUACAAAC (ssRNA) [Id_ii_S3_P3E.3_K3.2_C3.2_[C-2G]_[T-1C]_H3.2_A3.1_F3.1_T3.2_[A10T]]

>  <value-unit>
nM

>  <Kd>
45.1

$$$$
